// endpoint Ki / system Melanocortin receptor 3 (Homo sapiens, UniProt P41968)
Record the value in µM, omitting the unit from your answer.

{"molecule": "CCN(CC)CC(c1ccccc1F)N1CCN(C(=O)[C@@H](Cc2ccc(Cl)cc2)NC(=O)CC2c3ccccc3CN2C)CC1 (some centres not stated)", "measurement-units": "µM", "Ki": 4.6}

Turning now to a further molecule:
Field request: Ki | item: CCN(CC)CC(c1ccccc1F)N1CCN(C(=O)[C@@H](Cc2ccc(Cl)cc2)NC(=O)CC2NCc3ccccc32)CC1 (some centres not stated)
3.4

###

Notes on pKi obtained with Melanocortin receptor 5 (Homo sapiens, UniProt P33032).
Sequence (P33032 whole entry): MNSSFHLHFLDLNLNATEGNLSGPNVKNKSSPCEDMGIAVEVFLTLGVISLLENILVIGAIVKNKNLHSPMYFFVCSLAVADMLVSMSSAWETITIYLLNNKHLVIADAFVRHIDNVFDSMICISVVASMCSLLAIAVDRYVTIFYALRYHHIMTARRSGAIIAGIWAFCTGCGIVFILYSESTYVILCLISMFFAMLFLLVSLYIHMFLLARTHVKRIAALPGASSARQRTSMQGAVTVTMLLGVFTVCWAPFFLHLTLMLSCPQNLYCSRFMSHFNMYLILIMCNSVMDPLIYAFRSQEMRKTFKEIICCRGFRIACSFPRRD
Note on pKi: it is the negative log10 of concentration, concentration in mol/L.

{"compound": "CCN(CC)CC(c1ccccc1F)N1CCN(C(=O)[C@@H](Cc2ccc(Cl)cc2)NC(=O)CC2NCc3ccccc32)CC1 (some centres not stated)", "parameter": "pKi", "measured-value": 5.92}

Tell me the measured pKi of CCN(CC)CC(c1ccccc1F)N1CCN(C(=O)[C@@H](Cc2ccc(Cl)cc2)NC(=O)CC2(C)NCc3ccccc32)CC1 (some centres not stated) , please.
5.85
